# TARGET_OR_TEST_SYSTEM: 72 kDa type IV collagenase (Homo sapiens)
# Sequence (P08253 whole entry): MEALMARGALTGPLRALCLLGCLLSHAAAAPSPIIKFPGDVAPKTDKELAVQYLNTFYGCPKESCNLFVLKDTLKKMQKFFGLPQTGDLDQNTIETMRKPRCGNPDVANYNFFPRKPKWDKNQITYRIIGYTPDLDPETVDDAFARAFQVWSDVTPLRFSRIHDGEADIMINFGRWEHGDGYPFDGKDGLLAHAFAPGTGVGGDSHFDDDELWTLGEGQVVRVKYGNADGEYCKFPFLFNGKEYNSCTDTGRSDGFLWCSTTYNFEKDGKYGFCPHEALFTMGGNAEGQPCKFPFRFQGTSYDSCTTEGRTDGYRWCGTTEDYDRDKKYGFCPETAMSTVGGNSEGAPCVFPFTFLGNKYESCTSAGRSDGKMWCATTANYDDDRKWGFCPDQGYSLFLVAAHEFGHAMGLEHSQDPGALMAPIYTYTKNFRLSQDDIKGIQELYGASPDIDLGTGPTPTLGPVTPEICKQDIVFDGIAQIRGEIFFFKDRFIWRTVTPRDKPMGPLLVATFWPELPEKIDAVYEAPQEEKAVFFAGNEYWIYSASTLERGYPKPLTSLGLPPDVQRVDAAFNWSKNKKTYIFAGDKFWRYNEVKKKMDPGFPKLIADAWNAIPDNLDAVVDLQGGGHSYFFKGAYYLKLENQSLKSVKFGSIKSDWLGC
# METHOD_SUMMARY: Inhibition of recombinant human activated-MMP2 using Mca-Lys-Pro-Leu-Gly-Leu-Dap(Dnp)-Ala-Arg-NH2 as fluorogenic substrate incubated for 4 hrs followed by substrate addition measured every 10 secs for 20 mins by fluorometric assay
pIC50: −log10 of the molar value.
MEASUREMENT_TYPE: pIC50

(1) CC(=O)NCC[C@H](C(=O)NO)N(OC(C)C)S(=O)(=O)c1ccccc1
(2) CC(C)ON([C@H](CCNC(=O)c1ccccc1)C(=O)NO)S(=O)(=O)c1ccc(-c2ccccc2)cc1
Task: Exercise: compare 1 and 2 ; which one has the greater pIC50? Mark your selection by writing its label.
Output: 2
(2: 8.82, 1: 6.23)

----------
# TARGET_OR_TEST_SYSTEM: Collagenase 3 (Homo sapiens)
# METHOD_SUMMARY: Inhibition of recombinant human activated-MMP13 using Mca-Lys-Pro-Leu-Gly-Leu-Dap(Dnp)-Ala-Arg-NH2 as fluorogenic substrate incubated for 4 hrs followed by substrate addition measured every 10 secs for 20 mins by fluorometric assay
MEASUREMENT_TYPE: IC50 (nM)
Entry rule: numbers only, all in nM.

get_value(item= `CC(=O)NCC[C@H](C(=O)NO)N(OC(C)C)S(=O)(=O)c1ccccc1` , readout=IC50) returns 1800

----------
# TARGET_OR_TEST_SYSTEM: Stromelysin-1 (Homo sapiens, UniProt P08254)
# Sequence (P08254 whole entry): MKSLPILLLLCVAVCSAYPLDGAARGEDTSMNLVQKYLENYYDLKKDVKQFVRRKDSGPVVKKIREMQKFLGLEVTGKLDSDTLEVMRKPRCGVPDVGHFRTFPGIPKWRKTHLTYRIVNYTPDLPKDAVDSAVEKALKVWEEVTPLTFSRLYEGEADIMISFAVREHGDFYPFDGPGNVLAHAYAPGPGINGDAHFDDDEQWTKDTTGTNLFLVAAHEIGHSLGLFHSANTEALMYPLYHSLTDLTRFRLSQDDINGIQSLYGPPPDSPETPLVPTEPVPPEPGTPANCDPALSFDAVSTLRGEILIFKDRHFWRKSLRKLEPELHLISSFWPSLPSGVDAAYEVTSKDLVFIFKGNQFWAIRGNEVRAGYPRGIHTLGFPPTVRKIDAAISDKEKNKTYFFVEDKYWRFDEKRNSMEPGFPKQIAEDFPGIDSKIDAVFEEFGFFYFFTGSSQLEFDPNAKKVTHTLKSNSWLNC
# METHOD_SUMMARY: Inhibition of recombinant human activated-MMP3 using Mca-Lys-Pro-Leu-Gly-Leu-Dap(Dnp)-Ala-Arg-NH2 as fluorogenic substrate incubated for 4 hrs followed by substrate addition measured every 10 secs for 20 mins by fluorometric assay
pIC50: −log10 of the molar value.
MEASUREMENT_TYPE: pIC50

>  <STRUCTURE_NOTATION>
CC(C)ON([C@H](CCNC(=O)c1ccccc1)C(=O)NO)S(=O)(=O)c1ccc(-c2ccccc2)cc1

>  <VALUE>
6.35

$$$$

(P) CC(C)ON([C@H](CCNC(=O)Cc1ccccc1)C(=O)NO)S(=O)(=O)c1ccc(-c2ccccc2)cc1
(Q) CC(=O)NCC[C@H](C(=O)NO)N(OC(C)C)S(=O)(=O)c1ccc(-c2ccccc2)cc1
Task: Sorting ascending by pIC50, which comes first: P or Q ? Mark your selection by writing its label.
Output: P

----------
# TARGET_OR_TEST_SYSTEM: Stromelysin-1 (Homo sapiens)
# METHOD_SUMMARY: Inhibition of recombinant human activated-MMP3 using Mca-Lys-Pro-Leu-Gly-Leu-Dap(Dnp)-Ala-Arg-NH2 as fluorogenic substrate incubated for 4 hrs followed by substrate addition measured every 10 secs for 20 mins by fluorometric assay
pIC50: −log10 of the molar value.
MEASUREMENT_TYPE: pIC50

Example cases with answers are listed next.
>  <STRUCTURE_NOTATION>
COc1ccc(-c2ccc(S(=O)(=O)N(OC(C)C)[C@H](CCNC(=O)Cc3ccccc3)C(=O)NO)cc2)cc1

>  <VALUE>
7.44

$$$$
>  <STRUCTURE_NOTATION>
CC(C)ON([C@H](CCNS(C)(=O)=O)C(=O)NO)S(=O)(=O)c1ccc(-c2ccccc2)cc1

>  <VALUE>
7.15

$$$$

(A) COc1ccc(-c2ccc(S(=O)(=O)N(OC(C)C)[C@H](CCN3C(=O)c4ccccc4C3=O)C(=O)NO)cc2)cc1
(B) COc1ccc(-c2ccc(S(=O)(=O)N(OC(C)C)[C@H](CCNC(C)=O)C(=O)NO)cc2)cc1
Task: Sorting ascending by pIC50, which comes first: A or B ? Mark your selection by writing its label.
Output: A
(A: 6.98, B: 7.70)
